# tested system: T1, monkey Fc-PD-1 protein (monkey, UniProt Q15116 25-170 (human entry))
# T1 construct: not shown: Fc part not described
# T1 chain: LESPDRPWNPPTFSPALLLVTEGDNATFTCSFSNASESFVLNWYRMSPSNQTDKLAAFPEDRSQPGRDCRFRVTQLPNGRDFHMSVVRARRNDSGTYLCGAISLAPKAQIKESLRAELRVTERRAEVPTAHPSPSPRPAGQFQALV
# protocol notes: Biacore, Fab, monkey Fc-PD-1
assay readout: Kd (nM)
Give the quantity in nM, number only.

[[record]]
binder = "A36437 (Fab, V domains shown, humanized Fab clone of 135C12; also called humanized antibody A36437) VH: EVQLVQSGAEVKKPGESLKISCKGSGYSFTNFYIHWVRQMPGKGLEWMGSIYPNYGDTAYNQKFKDRFVFSLDTSVSTAYLQISSLKAEDTAVYYCARGYSYAMDYWGQGTTVTVSS VL: DIQMTQSPSTLSASVGDRVTITCSASQGISGDLNWYQQKPGQAPRLLIYHTSSLHSGIPARFSGSGSGTDFTLTISSLQPEDFAVYYCQYYSKDLLTFGGGTKLEIK"
assay_readout = "Kd"
value_measured = 6.07

[[record]]
binder = "A35777 (Fab, V domains shown, humanized Fab clone of 135C12; also called humanized antibody A35777) VH: EVQLVQSGAEVKKPGATVKISCKVSGYTFTNFYIHWVRQAPGKGLEWMGSIYPNYGDTAYNQKFKDRVTITADKSTSTAYMELSSLRSEDTAVYYCARGYSYAMDYWGQGTTVTVSS VL: DIQMTQSPSTLSASVGDRVTITCSASQGISGDLNWYQQKPGQAPRLLIYHTSSLHSGVPSRFSGSGSGTDFTLTISSLQPEDFATYYCQYYSKDLLTFGGGTKLEIK"
assay_readout = "Kd"
value_measured = 5


From here, focus on the item given below.
Data request: If you can, please state the reported Kd value of A35774 (Fab, V domains shown, humanized Fab clone of 135C12; also called humanized antibody A35774) VH: EVQLVQSGAEVKKPGESLKISCKGSGYSFTNFYIHWVRQAPGQRLEWMGSIYPNYGDTAYNQKFKDRFVFSLDTSVSTAYLQISSLKAEDTAVYYCARGYSYAMDYWGQGTTVTVSS VL: DIQMTQSPSSVSASVGDRVTITCSASQGISGDLNWYQQKPGKAPKLLIYHTSSLHSGVPSRFSGSGSGTDFTLTISSLQPEDFATYYCQYYSKDLLTFGGGTKLEIK .
Data returned: 2.79
